FYI, the data here is from patent US20080255192A1.

Molecular target: P-selectin/PSGL-1 interaction (Homo sapiens, UniProt P16109)
Construct: comprised of the lectin and epidermal growth factor-like (EGF) domains expressed in CHO cells; made in house; host or cells: CHO cells (P-LE)
Sequence (P16109 42-198): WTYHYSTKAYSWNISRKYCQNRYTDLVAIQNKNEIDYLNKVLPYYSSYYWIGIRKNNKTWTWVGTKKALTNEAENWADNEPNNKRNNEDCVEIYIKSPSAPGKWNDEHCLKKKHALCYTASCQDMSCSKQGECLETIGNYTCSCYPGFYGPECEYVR
Assay: Biacore P-Selectin/PSGL-1 Inhibition Assay (surface plasmon resonance)
Type: binding
Details: 250 uM test compound, 500 nM P.LE, immobilized PSGL-1 19ek, 10% DMSO, pH 7.4
OBSERVED PROPERTY: inhibition at 250 µM (%)

Here's what some known entries look like.
[
  {
    "MOLECULE": "CCc1cccc2c(C(=O)O)c(O)c(C3(c4ccc(C)cc4)CC3)nc12 [Compound 82]",
    "inhibition at 250 µM / %": 38
  },
  {
    "MOLECULE": "O=C(O)c1c(O)c(C2(c3ccccc3)CC2)nc2c(C(F)(F)F)cccc12 [Compound 34]",
    "inhibition at 250 µM / %": 44
  },
  {
    "MOLECULE": "O=C(O)c1c(O)c(CC2(c3ccccc3)CC2)nc2c(C(F)(F)F)cccc12 [Compound 111]",
    "inhibition at 250 µM / %": 46
  },
  {
    "MOLECULE": "Cc1ccc2c(C(=O)O)c(O)c(CC(C)c3ccccc3)nc2c1C (centres unmarked) [Compound 137]",
    "inhibition at 250 µM / %": 31
  },
  {
    "MOLECULE": "CCC(c1ccccc1)c1nc2c(C(C)C)cccc2c(C(=O)O)c1O (centres unmarked) [Compound 127]",
    "inhibition at 250 µM / %": 65
  },
  {
    "MOLECULE": "O=C(O)c1c(O)c(C2(c3ccc(Cl)cc3)CC2)nc2c(Br)cccc12 [Compound 9]",
    "inhibition at 250 µM / %": 46
  },
  {
    "MOLECULE": "COc1ccc(C2(c3nc4c5c(ccc4c(C(=O)O)c3O)CCCC5)CC2)cc1 [Compound 51]",
    "inhibition at 250 µM / %": 38
  },
  {
    "MOLECULE": "O=C(O)c1c(O)c(C2(c3ccc(Cl)cc3)CC2)nc2ccc(Br)cc12 [Compound 18]",
    "inhibition at 250 µM / %": 28
  },
  {
    "MOLECULE": "O=C(O)c1c(O)c(C2(c3cccc(C(F)(F)F)c3)CC2)nc2c(C(F)(F)F)cccc12 [Compound 57]",
    "inhibition at 250 µM / %": 42
  },
  {
    "MOLECULE": "Cc1ccc(C2(c3nc4c(C(O)(C(F)(F)F)C(F)(F)F)cccc4c(C(=O)O)c3O)CC2)cc1 [Compound 85]",
    "inhibition at 250 µM / %": 59
  }
]

P = Cc1ccc2c(C(=O)O)c(O)c(C3(c4ccc(Cl)cc4)CC3)nc2c1C [Compound 40]
Q = O=C(O)c1c(O)c(C2(c3ccc(C(F)(F)F)cc3)CC2)nc2c3c(ccc12)CCCC3 [Compound 93]
I'd appreciate it if you could identify which of P and Q has the greater inhibition at 250 µM. Use the label to indicate which entry you chose.
P

###

Target: P-selectin/PSGL-1 interaction (Homo sapiens)
Construct: comprised of the lectin and epidermal growth factor-like (EGF) domains expressed in CHO cells; made in house; host or cells: CHO cells (P-LE)
Test: Biacore P-Selectin/PSGL-1 Inhibition Assay (surface plasmon resonance)
Type: binding
Conditions: 250 uM test compound, 500 nM P.LE, immobilized PSGL-1 19ek, 10% DMSO, pH 7.4
OBSERVED PROPERTY: inhibition at 250 µM (%)

Here's what some known entries look like.
[
  {
    "COMPOUND": "Cc1cc(C)c2nc(C3(c4ccc(Cl)cc4)CC3)c(O)c(C(=O)O)c2c1 [Compound 10]",
    "EXPERIMENTAL TARGET": "P-selectin/PSGL-1 interaction (Homo sapiens)",
    "READING UNIT": "%",
    "inhibition at 250 µM": 47
  },
  {
    "COMPOUND": "CC(c1ccccc1)c1nc2c(C(F)(F)F)cccc2c(C(=O)O)c1O (centres unmarked) [Compound 123]",
    "EXPERIMENTAL TARGET": "P-selectin/PSGL-1 interaction (Homo sapiens)",
    "READING UNIT": "%",
    "inhibition at 250 µM": 49
  },
  {
    "COMPOUND": "Cc1ccc2c(C(=O)O)c(O)c(C(C)(C)c3ccc(Cl)cc3)nc2c1C [Compound 121]",
    "EXPERIMENTAL TARGET": "P-selectin/PSGL-1 interaction (Homo sapiens)",
    "READING UNIT": "%",
    "inhibition at 250 µM": 56
  },
  {
    "COMPOUND": "O=C(O)c1c(O)c(C2(c3ccc(C(F)(F)F)cc3)CC2)nc2c(C(F)(F)F)cccc12 [Compound 52]",
    "EXPERIMENTAL TARGET": "P-selectin/PSGL-1 interaction (Homo sapiens)",
    "READING UNIT": "%",
    "inhibition at 250 µM": 47
  },
  {
    "COMPOUND": "O=C(O)c1c(O)c(C2(c3ccccc3)CC2)nc2c(-c3ccccc3)cccc12 [Compound 45]",
    "EXPERIMENTAL TARGET": "P-selectin/PSGL-1 interaction (Homo sapiens)",
    "READING UNIT": "%",
    "inhibition at 250 µM": 37
  }
]

A = CCC(c1ccccc1)c1nc2c(C)c(C)ccc2c(C(=O)O)c1O (centres unmarked) [Compound 128]
B = O=C(O)c1c(O)c(C2(c3ccc(Cl)cc3)CC2)nc2cc(Cl)ccc12 [Compound 16]
C = O=C(O)c1c(O)c(C2(c3ccc(Cl)cc3)CC2)nc2c(C(=O)O)cccc12 [Compound 108]
Give the ascending ranking of the items by reported inhibition at 250 µM. // list labels; follow requested order
C, B, A

###

Target: P-selectin/PSGL-1 interaction (Homo sapiens)
Construct: comprised of the lectin and epidermal growth factor-like (EGF) domains expressed in CHO cells; made in house; host or cells: CHO cells (P-LE)
Assay: Biacore P-Selectin/PSGL-1 Inhibition Assay (surface plasmon resonance)
Format: binding
Settings: 250 uM test compound, 500 nM P.LE, immobilized PSGL-1 19ek, 10% DMSO, pH 7.4
OBSERVED PROPERTY: inhibition at 250 µM (%)

[
  {
    "COMPOUND": "O=C(O)c1c(OC(=O)N2CCOCC2)c(Cc2ccc(Cl)cc2)nc2c3c(ccc12)CCCC3",
    "inhibition at 250 µM / %": 16
  },
  {
    "COMPOUND": "CCC(C)c1cccc2c(C(=O)O)c(O)c(C3(c4ccccc4)CC3)nc12 (stereo not drawn)",
    "inhibition at 250 µM / %": 63
  },
  {
    "COMPOUND": "O=C(O)c1c(O)c(C2(c3ccc(F)cc3)CC2)nc2c(-c3ccsc3)cccc12",
    "inhibition at 250 µM / %": 64
  },
  {
    "COMPOUND": "Cc1cc(C)c2nc(C3(c4ccc(F)cc4)CC3)c(O)c(C(=O)O)c2c1",
    "inhibition at 250 µM / %": 11
  },
  {
    "COMPOUND": "O=C(O)c1c(O)c(C2(Cc3ccccc3)CC2)nc2c(C(F)(F)F)cccc12",
    "inhibition at 250 µM / %": 43
  }
]

1 = CC(C)c1cccc2c(C(=O)O)c(O)c(C3(c4ccccc4)CC3)nc12
2 = O=C(O)c1c(O)c(C2(c3ccc(Cl)cc3)CC2)nc2ccc(Cl)cc12
I'd appreciate it if you could identify which of 1 and 2 has the greater inhibition at 250 µM. Use the label to indicate which entry you chose.
1
(1: 63%, 2: 26%)

a = O=C(O)c1c(O)c(C2(c3cccc(Cl)c3)CC2)nc2c(C(F)(F)F)cccc12
b = CC(C)c1cccc2c(C(=O)O)c(O)c(C(c3ccccc3)C(C)C)nc12 (stereo not drawn)
c = Cc1ccc2c(C(=O)O)c(O)c(C3(c4ccc(F)cc4)CC3)nc2c1C
Give the ascending ranking of the items by reported inhibition at 250 µM. // list labels; follow requested order
c, b, a

###

Biological target: P-selectin/PSGL-1 interaction (Homo sapiens)
Construct: comprised of the lectin and epidermal growth factor-like (EGF) domains expressed in CHO cells; made in house; host or cells: CHO cells (P-LE)
Experiment: Biacore P-Selectin/PSGL-1 Inhibition Assay (surface plasmon resonance)
Assay type: binding
Details: 250 uM test compound, 500 nM P.LE, immobilized PSGL-1 19ek, 10% DMSO, pH 7.4
This listing pairs molecules with measured inhibition at 250 µM.

Here's what some known entries look like.
[
  {
    "MOLECULE": "O=C(O)c1c(O)c(C2(c3ccccc3)CC2)nc2ccc(Cl)cc12 [Compound 30]",
    "inhibition at 250 µM": "≤ 10%"
  },
  {
    "MOLECULE": "CC(Cc1ccccc1)c1nc2c(C(F)(F)F)cccc2c(C(=O)O)c1O (stereo not drawn) [Compound 132]",
    "inhibition at 250 µM": "49%"
  }
]

Please look at the following molecule next.
Which inhibition at 250 µM is listed for O=C(O)c1c(O)c(C2(c3ccc(Cl)cc3)CC2)nc2ccc(F)cc12 [Compound 17] ?
≤ 10%
